Data provenance: patent US20220259593A1

List of Mean relative activity values.
# Tested on: K562 CRISPRi cells
# experimental_protocol: Constant region variant library pooled growth screen, K562
# Format: cell-based, human
# condition_notes: sgRNA constant region variants; activity relative to the unmodified constant region cr995

molecule	Mean relative activity
cr209 (nucleic acid, listed as DNA, chemistry not fully specified) guide: GTTTAAGAGCTAAGCTGGAAACAGCATAGCAAGTTTAAATCAGGCTAGTCCGTTATCAACTTGAAAAAGTGGCACCGAGTCGGTGCT	0.2959
cr146 (nucleic acid, listed as DNA, chemistry not fully specified) guide: GTTTAAGAGCTAAGCTGGAAACAGCATAGCAAGTTTAAATAAGGCTAGTCCGTTATCAACTTGAAAAAGTGGCACGCAGTGCGTGCT	0.3141
cr618 (nucleic acid, listed as DNA, chemistry not fully specified) guide: GTTTAAGAGCTAAGCTGGAAACAGCATAGCAAGTTTAAGTAAGGCTAGTCCGTTATCAACTTGAAAAAGTGGCACCGAGTCGGTGCT	0.1571
cr073 (nucleic acid, listed as DNA, chemistry not fully specified) guide: GTTTTAGCGCTAAGCTGGAAACAGCATAGCAAGTTTAAATAAGGCTAGTCCGTTATCAACTTGAAAAAGTGGCACCGAGTCGGTGCT	0.265
cr063 (nucleic acid, listed as DNA, chemistry not fully specified) guide: ATTTTAGAGCTAAGCTGGAAACAGCATAGCAAGTTTAAATAAGGCTAGTCCGTTATCAACTTGAAAAAGTGGCACCGAGTCGGTGCT	0.1565

Enquiry: Which value of Mean relative activity has been reported for cr108 (nucleic acid, listed as DNA, chemistry not fully specified) guide: GTTTAAGAGCTAAGCTGGAAACAGCATAGCAAGTTTAAATAAAGCTAGTCTGTTATCAACTTGAGAAAGTGGCACCGAGTCGGTGCT in the records?
Return: 0.3221

Enquiry: # query: Mean relative activity of entry cr237 (nucleic acid, listed as DNA, chemistry not fully specified) guide: GTTTAAGAGCTAAGCTGGAAACAGCATAGCAAGTTTAAATAAGGATATTCCGTTATCAACGTGAAAACGTGGCACCCAGTGGGTGCT
Return: 0.2843

Enquiry: // returns reported Mean relative activity for input cr230 (nucleic acid, listed as DNA, chemistry not fully specified) guide: GTTTAAGAGCTAAGCTGGAAACAGCATAACAAGTTTAAATAAGGCTAGTCCATTATCAACTTGAACAAGTGGCACCGAGTCGGTGCT
Return: 0.1598

Enquiry: Endpoint output: Mean relative activity of cr011 (nucleic acid, listed as DNA, chemistry not fully specified) guide: GTTCAAGAGCTAAGCTGGAAACAGCATAGCAAGTTTAAATAAGGCTAGTCCGTTATCAACTTGAAAAAGTGGCACCGAGTCGGTGCT . Value?
Return: 0.2088

Enquiry: So what does the record say about Mean relative activity for cr185 (nucleic acid, listed as DNA, chemistry not fully specified) guide: GTTTAAGAGCTAAGCTGGAAACAGCATAGCAAGTTTAAATAAGGCTAGTCCGTTATCAACTTGAAAAAGTGGCACCGAGTAGGTGCT ?
Return: 0.1755

Enquiry: Name the recorded Mean relative activity for cr502 (nucleic acid, listed as DNA, chemistry not fully specified) guide: GTTTAAGAGCTAAGCTGGAAACAGCATAGCAAGTTTAAATAAGGCTAGTCCGTTATCAACTTGAAAAAGTGGCACCGAGTCGCTGCT .
Return: 0.1485

Enquiry: Field request: Mean relative activity | item: cr417 (nucleic acid, listed as DNA, chemistry not fully specified) guide: GTTTAAGAGCTAAGCTGGAAACAGCATAGCAATTTTAAATAAGGCTAGTCCGTTATCAACTTGAAGAAGTGGCACCGAGTCGGTGCT
Return: 0.2821

Enquiry: Name the reported Mean relative activity value associated with the molecule cr850 (nucleic acid, listed as DNA, chemistry not fully specified) guide: GTTTAAGAGCTAAGCTGGAAACAGCATAGCAAGTTTAAATAAGGCTAGTCCGTTATCAACTTGAAAAAGTGGCACCGGGGCGGTGCT
Return: 0.3225

Enquiry: Fill in the blank: the reported Mean relative activity of cr262 (nucleic acid, listed as DNA, chemistry not fully specified) guide: GTTTAAGAGCTAAGCTGGAAACAGCATAGCAAGCTTAAATAAGGCTAGTCCGTTATCATCTTGAAAAAGAGGCACCGAGTCGGTGCT is ____.
Return: 0.2329
